# protocol details: folding enthalpy; higher = less favourable; fluorescence melt of hairpins on a sequencing array, two-state fit
# condition: sodium 0.088 M
The reader will find reported folding enthalpy values listed item by item below.
outcome measure: folding enthalpy (kJ/mol)

>>> quantitative_readout("GCGGCCGAAAGGCGCCGC ((((((....)))..)))")
-62.5
>>> quantitative_readout("GTGGGGGGAAACCTCCAC ((((.((....)).))))")
-185
>>> quantitative_readout("GGCGTGTCGAAAGACGCC (((..(((....))))))")
-98.7
>>> quantitative_readout("GGACCAGGAAACTGGTCC (((((((....)))))))")
-135
>>> quantitative_readout("GATCACTGTGTGATC ((((((...))))))")
-130
>>> quantitative_readout("GGAGGGGGAAACCTCTCC ((((.((....)).))))")
-150
>>> quantitative_readout("GCTTGCCGAAAGGCTAGC (((.(((....))).)))")
-116
>>> quantitative_readout("GTGTTTGGAAACAAACGC (.(((((....))))).)")
-135
>>> quantitative_readout("GGAAGCGAAAGCTGCTCC ((((((....)))..)))")
-49.3
>>> quantitative_readout("GACACAGGAAACTATGTC ((((.((....)).))))")
-103
>>> quantitative_readout("GCGGTCGCCCGC ((((....))))")
-77.8
>>> quantitative_readout("GTCGAACGAAAGTTTGAC (((.(((....))).)))")
-176
>>> quantitative_readout("GCGTGGCTACGC ((((....))))")
-97.9
>>> quantitative_readout("GGTACCGAAAGGTCAACC ((((((....)))..)))")
-64.2
>>> quantitative_readout("GCGATTGGAAACGATCGC (((((.(....).)))))")
-205
>>> quantitative_readout("GTCAATCGAAAGATCGAC (((.(((....))).)))")
-121
>>> quantitative_readout("GATCGCCGGTGCGATC ((((((....))))))")
-147
>>> quantitative_readout("GATCGATCAGTCGATC ((((((....))))))")
-180
>>> quantitative_readout("GGGCTCGAAAGAGTGCCC ((((((....)))..)))")
-143
>>> quantitative_readout("GATTTCGGAAACGAGATC (((.(((....))).)))")
-125
>>> quantitative_readout("GCGGTCCGCCGC ((((....))))")
-82.5
>>> quantitative_readout("GTTGAACCGAAAGGTAAC (((..(((....))))))")
-54
>>> quantitative_readout("GATCGATCACTCGATC ((((((....))))))")
-174
>>> quantitative_readout("GACTGTGGAAACACAGTC (((((((....)))))))")
-157
>>> quantitative_readout("GTGTGGGGAAACCTACGC (.((.((....)).)).)")
-101
>>> quantitative_readout("GTCAGGCGAAAGCCAGAC (((.(((....))).)))")
-97.9
>>> quantitative_readout("GATCGTCCCTACGATC ((((((....))))))")
-184
>>> quantitative_readout("GCCGGTGGAAACACCAGC ((.((((....)))).))")
-90.1
>>> quantitative_readout("GCTCTACGAAAGTACAGC (((.(((....))).)))")
-89.8
>>> quantitative_readout("GATCTCAGTTGAGATC ((((((....))))))")
-144
>>> quantitative_readout("GGGCCAGGAAACCGGCCC (((((.(....).)))))")
-139
>>> quantitative_readout("GATCGGCGATCCGATC ((((((....))))))")
-148
>>> quantitative_readout("GATCATAAAATGATC ((((((...))))))")
-128
>>> quantitative_readout("GGAATTGGAAACAGTTCC ((((.((....)).))))")
-114
>>> quantitative_readout("GGTACCGGAAACGGTGCC ((.((((....)))).))")
-160
>>> quantitative_readout("GATCACCAGCGTGATC ((((((....))))))")
-181
>>> quantitative_readout("GCGAAACGAAAGTTCCGC (((.(((....))).)))")
-160
>>> quantitative_readout("GCAGAGCGAAAGCTTGGC ((..(((....)))..))")
-78.6
>>> quantitative_readout("GGACCCGGAAACGAGTCC ((((.((....)).))))")
-135
>>> quantitative_readout("GAATATCCGAAAGGATTC (((..(((....))))))")
-55.9
>>> quantitative_readout("GGAGAGGGAAACCTCCCC ((.((((....)))).))")
-67.9
>>> quantitative_readout("GAGATTGGAAACAGTCTC ((((.((....)).))))")
-115
>>> quantitative_readout("GTGTTGGGAAACCAGTAC ((..(((....)))..))")
-45.9
>>> quantitative_readout("GTATACCGAAAGGTTTAC (((.(((....))).)))")
-115
>>> quantitative_readout("GATCCCCCTTGGGATC ((((((....))))))")
-166
>>> quantitative_readout("GTTACCGAAAGGTTAAC ((((((....))).)))")
-64.6
>>> quantitative_readout("GATCGGGATACCGATC ((((((....))))))")
-192
>>> quantitative_readout("GATCGTCTCTACGATC ((((((....))))))")
-161
>>> quantitative_readout("GCAGTTCGAAAGAAGTGC (((.(((....))).)))")
-213
>>> quantitative_readout("GTGAAGCGAAAGCTCCAC (((.(((....))).)))")
-100
